tested on: ACHN renal; assay: NCI tumour cell line growth inhibition, 48 h
// reported TGI for each item listed
// note: answer is a bare numeric in µM

Qu. Return reported TGI; argument: Cn1c2ccccc2c2c3[nH]c(=O)[nH]c(=O)c3c3c4ccccc4n(C)c3c21
Ans. 6.62

Qu. Return reported TGI; argument: CC[C@H](C)[C@H]1O[C@]2(C=C[C@@H]1C)C[C@@H]1C[C@@H](C/C=C(\C)[C@@H](O[C@H]3C[C@H](OC)[C@@H](O[C@H]4C[C@H](OC)[C@@H](NC)[C@H](C)O4)[C@H](C)O3)[C@@H](C)/C=C/C=C3\CO[C@@H]4[C@H](O)C(C)=C[C@@H](C(=O)O1)[C@]34O)O2
Ans. 10.8

Qu. Return reported TGI; argument: COc1cc2c(c(OC)c1OC)C(=O)[C@@H]1c3ccc([N+](=O)[O-])cc3C(=O)N(CCCBr)[C@H]21
Ans. 58.5

Qu. Return reported TGI; argument: CC(=NNC(=S)Nc1ccc(C)cc1)c1cccc(C(C)=NNC(=S)Nc2ccc(C)cc2)n1
Ans. 95.2

---

system: K-562 leukemia; experiment: NCI tumour cell line growth inhibition, 48 h; in the data active = GI50 below about 0.43 µM; inactive = the rest
Outcome field: choose from active, inactive

{"smiles string": "Fc1ccc(-c2nn3ncccc3c2-c2ccnc(Nc3ccc4c(c3)OCCO4)n2)cc1", "experimental system": "K-562 leukemia", "class": "inactive"}

Qu. Could you please tell me the result logged for Cc1ccc(NC(=O)NCCCOc2ccc(N3C(N)=NC(N)=NC3(C)C)cc2Cl)cc1S(=O)(=O)F in this assay?
Ans. inactive

Qu. Could you please tell me the result logged for Cc1ccc2c3c(c(=O)[nH]c2c1)C1(C(C#N)=C(N)O3)c2cc(Br)ccc2-c2ccc(Br)cc21 in this assay?
Ans. inactive

Qu. Could you please tell me the result logged for NCCCn1c2c(c3ccc([N+](=O)[O-])cc3c1=O)C(=O)c1cc(Br)ccc1-2 in this assay?
Ans. active

Qu. Could you please tell me the result logged for COc1cc2c3c(n(CCCCOC(=O)C(Cl)(Cl)Cl)c(=O)c2cc1OC)-c1cc2c(cc1C3=O)OCO2 in this assay?
Ans. inactive

---

system: MDA-MB-231 breast; experiment: NCI tumour cell line growth inhibition, 48 h; in the data active = GI50 below about 0.43 µM; inactive = the rest
Outcome field: choose from yes for active, no for inactive

Please review the following examples before continuing.
{"compound": "O=C1NN(C2=NNC3(C(=O)N2)c2ccccc2-c2ccccc23)C(c2ccccc2)=N/C1=C/c1ccc(O)cc1", "class": "no"}
{"compound": "Cc1cc(O)c(C(C)(C)C)cc1Sc1cc(C(C)(C)C)c(O)cc1C", "class": "no"}
{"compound": "Cc1ccc(NC(=O)c2sc3nc(C)c(C(O)c4ccccc4)cc3c2N)cc1 (stereo not given)", "class": "no"}

Qu. Could you please tell me the result logged for COC(=O)c1c(C)[nH]c(/C=C2\N=C(c3ccc[nH]3)C=C2OC)c1C in this assay?
Ans. yes

Qu. Could you please tell me the result logged for Cc1ccc2[nH]c(C(=O)NN3C(=O)C(C)SC34CCCC(C)C4)c(-c3ccccc3)c2c1 (stereo not given) in this assay?
Ans. no

---

test system: XF 498 CNS; experiment: NCI tumour cell line growth inhibition, 48 h
// reported TGI for each item listed

Answered cases to consult:
{"molecule": "COc1ccc(/C=C\\c2cc(OC)c(OC)c(OC)c2)cc1OC(=O)NCCN(C)C", "test result": "< 0.0001 µM"}
{"molecule": "COC(=O)C(=Cc1cc(OC)c(OC)c(OC)c1-c1cc2c(cc1C(C)=O)OCO2)C(=O)OC", "test result": "59.7 µM"}
{"molecule": "CCOC(=O)C(Cc1cn(S(=O)(=O)c2ccccc2)c2ccccc12)(NC(C)=O)C(=O)OCC", "test result": "> 100 µM"}

Qu. Return reported TGI; argument: N#C/C(=C\c1cc2ccccc2c2ccccc12)c1ccccc1
Ans. 12.5 µM
